B1: FAM46D (parent)
chain: FQEAMTHLQHKLICTRKPEEIRGG

- Variants of: B1
- experimental-details: protein stability index of a GFP-peptide fusion (GPS, HEK-293T) (PSI 1-6); higher = more stable;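 further: lentivirally expressed fusions sorted by FACS into six bins by GFP to DsRed ratio, PSI derived from sequencing read proportions per bin multiplied by bin number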
- condition-label: c terminus: a fixed tail appended
For each entry below, report its protein stability index value.
Response field accepts a number only; no unit should be typed.

protein stability index for `L8G` ?
3.09

protein stability index for `A4C` ?
2.61

protein stability index for `L8R` ?
3.31

protein stability index for `Q9E` ?
3.36

protein stability index for `C14E` ?
3.36

protein stability index for `Q2S` ?
2.74

protein stability index for `L8D` ?
4.31

protein stability index for `M5I` ?
2.22

protein stability index for `A4I` ?
2.42

protein stability index for `E3P` ?
2.8

protein stability index for `T6Y` ?
1.54

protein stability index for `E19Q` ?
2.23

protein stability index for `I13R` ?
2.72

protein stability index for `R22D` ?
3.3

protein stability index for `E19A` ?
2.79

protein stability index for `I13F` ?
1.73

protein stability index for `C14H` ?
2.82

protein stability index for `E19F` ?
2.09

protein stability index for `R16W` ?
1.67

protein stability index for `G24V` ?
3.09

protein stability index for `T15H` ?
2.22

protein stability index for `A4R` ?
2.75
